Entry source: PubChem BioAssay (NCI)

Tested on: NCI-H226 lung
assay comment: NCI tumour cell line growth inhibition, 48 h
Catalogue of compounds with associated TGI

> print(dat)
                                   compound  attribute.measured  experimental.value
1  O=[N+]([O-])c1ccc(S[C@@H]2[C@H]3c4c(-c5ccccc5)[nH]c(-c5ccccc5)c4[C@@H]2C[C@H]3Cl)cc1                 TGI            > 100 µM
2  CC1CCP(=O)(c2ccccc2)c2ccccc21 (configuration not stated)                 TGI            > 100 µM
3  CCOC(=O)C1=C(C(=O)c2ccc(C)cc2)C(c2cccc([N+](=O)[O-])c2)C(C(=O)c2ccc(C)cc2)=C(C(=O)OCC)N1                 TGI             35.2 µM
4  CCc1cccc(C(C)C)c1NC(=O)C(=O)CC(=O)c1c(C)n([O-])c2ccccc2[n+]1=O                 TGI            > 100 µM

Q: State its TGI for this compound: COc1ccc(/C=c2\[nH]c3nc(=O)c(N4CCOCC4)c(N)n3c2=O)cc1
A: > 100 µM

Q: State its TGI for this compound: COc1nc2c(c(=O)n1C)N[C@H]1[C@H](OC(C)=O)[C@@H](OC(C)=O)CO[C@H]1N2
A: > 100 µM

Q: State its TGI for this compound: c1ccc(CCNCc2ccco2)nc1
A: > 100 µM

Q: State its TGI for this compound: CCOC(=O)C1(Br)C(c2ccccc2)NC(=O)NC1(C)Br (configuration not stated)
A: > 100 µM
